Ref: PubChem BioAssay (NCI)

Consider the following molecules; for each one, report its growth.
- Tested on: 786-0 renal
- ASSAY: NCI-60 one-dose screen, 48 h (100 = growth as untreated, 0 = no growth, -100 = all killed)
- EXPERIMENTAL SETUP: 10 µM unless noted
About 83,000 compounds went through this panel and 20% of them were active in at least one assay; those are over-represented in the sample as a whole.
Numbers only, in %.

Recorded results for 5 molecules are shown here.
MOLECULE	UNITS OF MEASURE	growth
Cn1c(=O)c2c(nc(N3CCCC3)n2C)n(C)c1=O	%	97
Cc1cc(N2CCN(C)CC2)nc(N(CCNc2ccnc3cc(Cl)ccc23)Cc2ccco2)n1	%	32.6
CCN1CCN(C(=O)[C@@]2(C)CC[C@]3(C)CC[C@]4(C)C(=CC(=O)[C@@H]5[C@@]6(C)CC[C@H](OCCC#N)C(C)(C)[C@@H]6CC[C@]54C)[C@@H]3C2)CC1	%	51
COc1ccc(-c2nc(Nc3ccc(-c4nc5ccccc5[nH]4)cc3)nc(N3CCOCC3)n2)cc1	%	-60
C=C1C(=O)O[C@H]2[C@H]1CC/C(COC(=O)NCc1c[nH]c3ccccc13)=C\CC[C@@]1(C)O[C@@H]21	%	44.6

Hi team, please reply with growth for each item in this list.
1. N#CC1C(=N)Cc2ccccc2-c2ccccc21 (configuration not stated)
2. CN1CCN(c2ccc3nc(-c4[nH]ncc4Nc4ncnc5c4OCCCN5)[nH]c3c2)CC1

65.6
-59.3
